# Tested on: Aedes aegypti larvae
# measurement.notes: Insecticidal activity, larvae in treated water (Test 1 (b)), toxicity vs parathion
# Assay type: in vivo, mosquito (Aedes aegypti)
# Design: key: Toxicity Index: parathion = 100; 200 = twice as active, 50 = half
# experimental.parameters: early fourth instar larvae; final mortality when all larvae emerged as adults or died; 50% mortality basis; standard parathion = 100
Each entry below carries its recorded Toxicity Index A.a..
Output spec: single numeric token, no unit.

Please review the entries below; each comes with its answer.
INSERT INTO results (compound, tested_target, quantity_name, endpoint_value) VALUES
  ('O=C(NC(=O)N(Sc1ccccc1[N+](=O)[O-])c1ccc(OC(F)(F)F)cc1)c1ccccc1Cl [Example 1]', 'Aedes aegypti larvae', 'Toxicity Index A.a.', 220),
  ('O=C(NC(=O)N(Sc1ccc([N+](=O)[O-])cc1)c1ccc(C(F)(F)F)cc1)c1c(F)cccc1F [Example 21]', 'Aedes aegypti larvae', 'Toxicity Index A.a.', 13),
  ('Cc1ccc(SN(C(=O)NC(=O)c2c(F)cccc2F)c2ccc(C(F)(F)F)cc2)cc1 [Example 18]', 'Aedes aegypti larvae', 'Toxicity Index A.a.', 170),
  ('O=C(NC(=O)N(Sc1ccc([N+](=O)[O-])cc1)c1ccc(Cl)cc1)c1c(F)cccc1F [Example 28]', 'Aedes aegypti larvae', 'Toxicity Index A.a.', 6),
  ('O=C(NC(=O)N(Sc1ccccc1[N+](=O)[O-])c1ccc(Cl)cc1)c1c(F)cccc1F [Example 5]', 'Aedes aegypti larvae', 'Toxicity Index A.a.', 220);

Problem: For the compound Cc1ccccc1SN(C(=O)NC(=O)c1c(F)cccc1F)c1ccc(Cl)cc1 [Example 9] , what Toxicity Index A.a. is on record?
Result: 31

Problem: For the compound Cc1cccc(SN(C(=O)NC(=O)c2c(F)cccc2F)c2ccc(Cl)cc2)c1 [Example 10] , what Toxicity Index A.a. is on record?
Result: 24

---

# Tested on: eggs of Spodoptera littoralis
# measurement.notes: Ovicidal activity, sprayed eggs (Test 1 (c)), toxicity vs parathion
# Type: in vivo, Egyptian cotton leafworm (Spodoptera littoralis)
# experimental.parameters: eggs less than 24 hours old; approximately five days; 50% mortality basis; standard parathion = 100
quantity.name: Toxicity Index S.l.ov.
Output spec: single numeric token, no unit.

Please review the entries below; each comes with its answer.
INSERT INTO measurements (compound, quantity_name, endpoint_value) VALUES
  ('O=C(NC(=O)N(Sc1ccc(Br)cc1)c1ccc(C(F)(F)F)cc1)c1c(F)cccc1F', 'Toxicity Index S.l.ov.', 1500),
  ('Cc1ccc(SN(C(=O)NC(=O)c2ccccc2Cl)c2ccc(OC(F)(F)F)cc2)cc1', 'Toxicity Index S.l.ov.', 1500),
  ('O=C(NC(=O)N(SC(Cl)(Cl)Cl)c1ccc(OC(F)(F)F)cc1)c1ccccc1Cl', 'Toxicity Index S.l.ov.', 1300);

Let us examine a further case.
Problem: For the compound "Cc1ccccc1SN(C(=O)NC(=O)c1ccccc1Cl)c1ccc(OC(F)(F)F)cc1" , what Toxicity Index S.l.ov. is on record?
Result: 2200

---

# Test system: Aedes aegypti larvae
# measurement.notes: Insecticidal activity, larvae in treated water (Test 1 (b)), toxicity vs parathion
# Assay type: in vivo, mosquito (Aedes aegypti)
# Design: key: Toxicity Index: parathion = 100; 200 = twice as active, 50 = half
# experimental.parameters: early fourth instar larvae; final mortality when all larvae emerged as adults or died; 50% mortality basis; standard parathion = 100
quantity.name: Toxicity Index A.a.
Output spec: single numeric token, no unit.

INSERT INTO measurements (compound, quantity_name, endpoint_value) VALUES
  ('O=C(NC(=O)N(Sc1ccccc1)c1ccc(Cl)cc1)c1c(F)cccc1F [Example 8]', 'Toxicity Index A.a.', 22),
  ('O=C(NC(=O)N(Sc1ccccc1)c1ccc(Oc2ccc(C(F)(F)F)cc2Cl)cc1)c1ccccc1Cl [Example 29]', 'Toxicity Index A.a.', 330),
  ('O=C(NC(=O)N(SC(Cl)(Cl)Cl)c1ccc(C(F)(F)F)cc1)c1c(F)cccc1F [Example 6]', 'Toxicity Index A.a.', 34),
  ('Cc1ccc(SN(C(=O)NC(=O)c2c(F)cccc2F)c2ccc(Cl)cc2)cc1 [Example 11]', 'Toxicity Index A.a.', 25),
  ('O=C(NC(=O)N(Sc1ccc(Cl)cc1)c1ccc(OC(F)(F)F)cc1)c1ccccc1Cl [Example 33]', 'Toxicity Index A.a.', 44),
  ('O=C(NC(=O)N(Sc1ccc(Cl)cc1)c1ccc(C(F)(F)F)cc1)c1c(F)cccc1F [Example 27]', 'Toxicity Index A.a.', 21);

Problem: For the compound O=C(NC(=O)N(Sc1ccc(Cl)cc1)c1ccc(Oc2ccc(C(F)(F)F)cc2Cl)cc1)c1ccccc1Cl [Example 30] , what Toxicity Index A.a. is on record?
Result: 220

Problem: For the compound Cc1ccc(SN(C(=O)NC(=O)c2ccccc2Cl)c2ccc(OC(F)(F)F)cc2)cc1 [Example 23] , what Toxicity Index A.a. is on record?
Result: 145
